The following are reported AC50 results, target or system Cytochrome P450 2C9 (Homo sapiens, UniProt P11712).

Recorded AC50, per entry:
[
  {
    "Compound": "CC1(C)C(=O)N=C2C1=C(O)C(=O)c1ccccc12",
    "Measured Value": "25.1 µM (inconclusive)"
  },
  {
    "Compound": "N#Cc1ccc(CN2CCC3(CC2)CCN(C(=O)c2cnccn2)CC3)cc1",
    "Measured Value": "39.8 µM (inconclusive)"
  },
  {
    "Compound": "COc1cc(C(=O)Oc2ccccc2/C=N/NC(=O)c2ccc(C)cc2)cc(OC)c1OC",
    "Measured Value": "0.316 µM (inconclusive)"
  },
  {
    "Compound": "O=[N+]([O-])c1ccc(N2CCC(=NOCc3ccc(Cl)cc3)CC2)cc1",
    "Measured Value": "14.1 µM (inconclusive)"
  },
  {
    "Compound": "COc1ccc(-c2nc3cnc(Nc4ccccc4)nc3n(Cc3cccs3)c2=O)cc1",
    "Measured Value": "12.6 µM (inconclusive)"
  },
  {
    "Compound": "O=C(Cc1ccccc1)NC(=S)Nc1cc(C(F)(F)F)ccc1Cl",
    "Measured Value": "3.55 µM (inconclusive)"
  },
  {
    "Compound": "CCCn1cnc2c(SCc3ccc(Cl)cc3)nc(N)nc21",
    "Measured Value": "6.31 µM (inconclusive)"
  },
  {
    "Compound": "Cc1cc(C)c(-c2noc(C(=O)OC(C)(C)C)c2C(=O)OC(C)(C)C)c(C)c1",
    "Measured Value": "12.6 µM (inconclusive)"
  }
]

Okay, next one:
Suppose we examine the compound Cn1c(-c2ccc(CN3CCCCC3)o2)nc2ccccc21 ; what AC50 value has been reported?
2 µM (inconclusive)
